Test system: HT1376
Assay: In vitro proliferation inhibition assay of camptothecin derivatives (Payload), Test Example 2
Format: cell-based
Settings: Homo sapiens, HT-1376, 120 h, read-out: HT1376 IC50
Procedure: Test Example 2 In vitro proliferation inhibition assay of the camptothecin derivatives (Payload) of the present invention on tumor cells 1. Instruments and Reagents 2. Experimental Procedure • a. […] The optical density (OD) at 450 nm was measured using a microplate reader (model: CEY0017), and the data was recorded with Excel. • c. […]

{"molecule": "CC[C@@]1(O)C(=O)OCc2c1cc1n(c2=S)Cc2c-1nc1cc3c(cc1c2CNC(=O)[C@@H](C)O)OCCO3", "IC50, nM": 24.1}
{"molecule": "CC[C@@]1(O)C(=O)OCc2c1cc1n(c2=S)Cc2c-1nc1cc(F)c(C)cc1c2CNC(=O)[C@H]1C[C@@H](O)C1", "IC50, nM": 11.6}
{"molecule": "CC[C@@]1(O)C(=O)OCc2c1cc1n(c2=S)Cc2c-1nc1cc(F)c(OC)cc1c2CN", "IC50, nM": 1.97}
{"molecule": "CC[C@@]1(O)C(=O)OCc2c1cc1n(c2=S)Cc2c-1nc1cc(F)c(C)cc1c2CNC(=S)CO", "IC50, nM": 0.014}
{"molecule": "CC[C@@]1(O)C(=O)OCc2c1cc1n(c2=S)Cc2c-1nc1cc(F)c(OC)cc1c2CNC(=O)OCCO", "IC50, nM": 45.4}
{"molecule": "CC[C@@]1(O)C(=O)OCc2c1cc1n(c2=S)Cc2c-1nc1cc(Cl)c(C)cc1c2CNC(=O)[C@H](C)O", "IC50, nM": 9.94}
{"molecule": "CC[C@@]1(O)C(=O)OCc2c1cc1n(c2=S)Cc2c-1nc1cc(F)c(C)cc1c2CNC(=O)[C@@H](C)O", "IC50, nM": 5.94}
{"molecule": "CC[C@@]1(O)C(=O)OCc2c1cc1n(c2=S)Cc2c-1nc1cc(F)c(C)cc1c2CNC(=O)[C@@H](O)C1CC1", "IC50, nM": 9.36}
{"molecule": "CC[C@@]1(O)C(=O)OCc2c1cc1n(c2=O)Cc2c-1nc1cc(F)c(C)c3c1c2[C@@H](N)CC3 [EXD, Exatecan, reference compound]", "IC50, nM": 8.71}
{"molecule": "CC[C@@]1(O)C(=O)OCc2c1cc1n(c2=S)Cc2c-1nc1cc(F)c(OC)cc1c2CNC(=S)CO", "IC50, nM": 4.94}
{"molecule": "CC[C@@]1(O)C(=O)OCc2c1cc1n(c2=S)Cc2c-1nc1cc(F)c(F)cc1c2CNC(=O)[C@H]1C[C@@H](O)C1", "IC50, nM": 5.05}
{"molecule": "CC[C@@]1(O)C(=O)OCc2c1cc1n(c2=S)Cc2c-1nc1cc(F)c(C)cc1c2CNC(=O)[C@H](O)C1CC1", "IC50, nM": 0.917}
{"molecule": "CC[C@@]1(O)C(=O)OCc2c1cc1n(c2=S)Cc2c-1nc1cc(F)c(OC)cc1c2CNC(=O)[C@@H](C)O", "IC50, nM": 10.1}
{"molecule": "CC[C@@]1(O)C(=O)OCc2c1cc1n(c2=S)Cc2c-1nc1cc(F)c(F)cc1c2CNC(=O)[C@H](C)O", "IC50, nM": 3.79}

###

Tested on: HT1376
Assay: In vitro proliferation inhibition assay of camptothecin derivatives (Payload), Test Example 2
Format: cell-based
Conditions: Homo sapiens, HT-1376, 120 h, read-out: HT1376 IC50
reportedMetric: IC50 (nM)

{"molecule": "[2H]C([2H])(O)C(=O)NCc1c2c(nc3cc(F)c(C)cc13)-c1cc3c(c(=S)n1C2)COC(=O)[C@]3(O)CC", "targetOfAssay": "HT1376", "measuredNumber": 5.98}
{"molecule": "CC[C@@]1(O)C(=O)OCc2c1cc1n(c2=S)Cc2c-1nc1cc(F)c(C)cc1c2CNC(=O)C1CCC(O)C1 (stereo partly drawn)", "targetOfAssay": "HT1376", "measuredNumber": 42.4}
{"molecule": "CC[C@@]1(O)C(=O)OCc2c1cc1n(c2=S)Cc2c-1nc1cc(F)c(F)cc1c2CN", "targetOfAssay": "HT1376", "measuredNumber": 9.76}
{"molecule": "CC[C@@]1(O)C(=O)OCc2c1cc1n(c2=S)Cc2c-1nc1cc(F)c(C)cc1c2CNC(=O)[C@H](C)O", "targetOfAssay": "HT1376", "measuredNumber": 5.38}
{"molecule": "CC[C@@]1(O)C(=O)OCc2c1cc1n(c2=S)Cc2c-1nc1cc3c(cc1c2CN)OCCO3", "targetOfAssay": "HT1376", "measuredNumber": 10.9}
{"molecule": "CC[C@@]1(O)C(=O)OCc2c1cc1n(c2=S)Cc2c-1nc1cc(F)c(OC)cc1c2CNC(=O)CO", "targetOfAssay": "HT1376", "measuredNumber": 19.5}
{"molecule": "CC[C@@]1(O)C(=O)OCc2c1cc1n(c2=S)Cc2c-1nc1cc(F)c(OC)cc1c2CNC(=O)[C@H]1C[C@@H](O)C1", "targetOfAssay": "HT1376", "measuredNumber": 66.7}
{"molecule": "CC[C@@]1(O)C(=O)OCc2c1cc1n(c2=S)Cc2c-1nc1cc3c(cc1c2CNC(=O)CO)OCCO3", "targetOfAssay": "HT1376", "measuredNumber": 10.3}
{"molecule": "CC[C@@]1(O)C(=O)OCc2c1cc1n(c2=S)Cc2c-1nc1cc3c(cc1c2CNC(=O)[C@H]1C[C@@H](O)C1)OCCO3", "targetOfAssay": "HT1376", "measuredNumber": 38.4}
{"molecule": "CC[C@@]1(O)C(=O)OCc2c1cc1n(c2=S)Cc2c-1nc1cc3c(cc1c2CNC(=S)CO)OCCO3", "targetOfAssay": "HT1376", "measuredNumber": 8.69}
{"molecule": "CC[C@@]1(O)C(=O)OCc2c1cc1n(c2=S)Cc2c-1nc1cc(F)c(C)cc1c2CNCCO", "targetOfAssay": "HT1376", "measuredNumber": 2.5}
{"molecule": "CC[C@@]1(O)C(=O)OCc2c1cc1n(c2=S)Cc2c-1nc1cc(F)c(C)cc1c2CN", "targetOfAssay": "HT1376", "measuredNumber": 3.85}
{"molecule": "CC[C@@]1(O)C(=O)OCc2c1cc1n(c2=S)Cc2c-1nc1cc(F)c(C)cc1c2[C@@H](C)N", "targetOfAssay": "HT1376", "measuredNumber": 3.87}
{"molecule": "CC[C@@]1(O)C(=O)OCc2c1cc1n(c2=S)Cc2c-1nc1cc(Cl)c(C)cc1c2CN", "targetOfAssay": "HT1376", "measuredNumber": 13.8}
{"molecule": "CC[C@@]1(O)C(=O)OCc2c1cc1n(c2=S)Cc2c-1nc1cc(Cl)c(C)cc1c2CNC(=O)[C@H]1C[C@@H](O)C1", "targetOfAssay": "HT1376", "measuredNumber": 40.2}
{"molecule": "CC[C@@]1(O)C(=O)OCc2c1cc1n(c2=S)Cc2c-1nc1cc3c(cc1c2CNC(=O)OCCO)OCCO3", "targetOfAssay": "HT1376", "measuredNumber": 13.5}
{"molecule": "CC[C@@]1(O)C(=O)OCc2c1cc1n(c2=S)Cc2c-1nc1cc3c(cc1c2CNC(=O)[C@H](C)O)OCCO3", "targetOfAssay": "HT1376", "measuredNumber": 18.2}
{"molecule": "CC[C@@]1(O)C(=O)OCc2c1cc1n(c2=S)Cc2c-1nc1cc(F)c(OC)cc1c2CNC(=O)[C@H](C)O", "targetOfAssay": "HT1376", "measuredNumber": 15.3}

###

Tested on: MDA-MB-453
Experiment: In vitro proliferation inhibition assay of camptothecin derivatives (Payload), Test Example 1
Format: cell-based
Conditions: Homo sapiens, MDA-MB-453, 96 h, read-out: MDA-MB-453 IC50
pIC50: −log10 of the molar value.
// pIC50 lookup, one value per entry
reportedMetric: pIC50

{"molecule": "CC[C@@]1(O)C(=O)OCc2c1cc1n(c2=O)Cc2c-1nc1cc(F)c(C)c3c1c2[C@@H](NC(=O)CO)CC3 [DXD, Dxd, reference compound]", "reportedMetric": "pIC50", "measuredNumber": 8.54}
{"molecule": "CC[C@@]1(O)C(=O)OCc2c1cc1n(c2=S)Cc2c-1nc1cc(F)c(C)cc1c2CNC(=O)CO [Compound 17]", "reportedMetric": "pIC50", "measuredNumber": 8.94}
{"molecule": "CC[C@@]1(O)C(=O)OCc2c1cc1n(c2=O)Cc2c-1nc1cc(F)c(C)c3c1c2[C@@H](N)CC3 [EXD, Exatecan, reference compound]", "reportedMetric": "pIC50", "measuredNumber": 8.99}
